SUBJECT OF TEST: G-protein coupled receptor 55 (Homo sapiens, UniProt Q9Y2T6)
Sequence (Q9Y2T6 whole entry, the tested form may be a part): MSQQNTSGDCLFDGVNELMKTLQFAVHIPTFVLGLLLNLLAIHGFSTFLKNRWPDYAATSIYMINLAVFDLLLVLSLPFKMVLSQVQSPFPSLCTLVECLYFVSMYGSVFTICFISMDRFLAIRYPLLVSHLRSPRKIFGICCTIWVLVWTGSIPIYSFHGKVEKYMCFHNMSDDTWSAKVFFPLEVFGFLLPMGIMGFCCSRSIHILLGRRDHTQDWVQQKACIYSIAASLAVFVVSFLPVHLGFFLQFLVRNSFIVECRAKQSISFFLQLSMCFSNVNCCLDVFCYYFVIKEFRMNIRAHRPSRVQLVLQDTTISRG
ASSAY OVERVIEW: Antagonist activity against human GPR55 expressed in CHO cells assessed as reduction in LPI-induced beta-arrestin recruitment at 10 uM by beta-galactosidase enzyme fragment complementation method
Type: cell-based
EXPERIMENTAL READOUT: inhibition (%)
Please state the figure in %; there is no need to write the unit.

Consider the compound `CN(C)c1ccc(/C=C2\N=C3SCCCN3C2=O)cc1` . State its measured inhibition.
13

Consider the compound `O=C1/C(=C/c2cccc(OCc3ccc(F)cc3)c2)N=C2SCCCCN12` . State its measured inhibition.
12

Consider the compound `CCCCC/C=C\C/C=C\C/C=C\C/C=C\CCCC(=O)NCC(=O)O` . State its measured inhibition.
6

Consider the compound `CCOC(=O)COc1cccc(/C=C2\N=C3SCCCCN3C2=O)c1` . State its measured inhibition.
4

Consider the compound `O=C1/C(=C/c2ccccc2)N=C2SCCCN12` . State its measured inhibition.
25

Consider the compound `C/C(=C1/N=C2SCCCCN2C1=O)c1ccccc1` . State its measured inhibition.
25

Consider the compound `O=C1/C(=C/c2ccc(-c3ccccc3)cc2)N=C2SCCCCN12` . State its measured inhibition.
0

Consider the compound `O=C1N2CCCSC2=NC1(c1ccccc1)c1ccccc1` . State its measured inhibition.
23

Origin of the recorded values: ChEMBL document CHEMBL3217528
